Molecular target: human GCG receptor (human, UniProt P47871 26-477)
Sequence (P47871 26-477): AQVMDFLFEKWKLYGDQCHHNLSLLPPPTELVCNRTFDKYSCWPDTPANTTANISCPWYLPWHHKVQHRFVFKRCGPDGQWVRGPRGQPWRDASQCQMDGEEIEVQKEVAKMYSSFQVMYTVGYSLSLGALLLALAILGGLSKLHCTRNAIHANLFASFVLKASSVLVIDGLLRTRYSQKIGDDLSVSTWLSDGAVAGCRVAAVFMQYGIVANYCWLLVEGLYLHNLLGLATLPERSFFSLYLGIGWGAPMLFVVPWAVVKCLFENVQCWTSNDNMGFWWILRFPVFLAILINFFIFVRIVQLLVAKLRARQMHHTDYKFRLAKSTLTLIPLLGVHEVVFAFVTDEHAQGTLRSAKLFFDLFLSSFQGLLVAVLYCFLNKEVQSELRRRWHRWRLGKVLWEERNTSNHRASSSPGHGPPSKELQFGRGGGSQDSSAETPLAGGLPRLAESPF
Assay: cell-based or functional assay
Positions of bridges follow the written chain, without caps; N, C: chain ends. Non-standard residues stand in square brackets, D forms with d. No end group written: not given here. Aib = CC(C)(N)C(=O)O
We begin with a simple list: items and their reported In vitro activity relative to native peptide (%), vs. Glucagon (cAMP EC50).
Give the quantity in %, number only.

Below are worked cases with known answers.
binder: Y[Aib]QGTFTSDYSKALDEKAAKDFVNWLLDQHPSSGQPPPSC (bridge 16-20) [trigonal agonist of SEQ ID NO: 102]
uom: %
observed-result: 29.5

binder: Y[Aib]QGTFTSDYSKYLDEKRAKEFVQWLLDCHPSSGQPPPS (bridge 16-20) [trigonal agonist of SEQ ID NO: 97]
uom: %
observed-result: 62.8

Now, please, on to the next binder.
Query (binder): H[Aib]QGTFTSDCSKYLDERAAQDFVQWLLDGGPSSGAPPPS [trigonal agonist of SEQ ID NO: 25] ; field requested: In vitro activity relative to native peptide (%), vs. Glucagon (cAMP EC50)
0.1
